Below is a list of entries, each paired with its recorded Papp value.
- ASSAY NAME: in vitro
- CONDITION: PAMPA
- Description: Permeability of the compound by PAMPA-TGI assay
// note: answer is a bare numeric in ×10⁻⁶ cm/s

>>> df
                                   molecule       units  recorded_value
0  CC(=O)N1CCN(c2ccc(OCC3COC(Cn4ccnc4)(c4ccc(Cl)cc4Cl)O3)cc2)CC1 (stereo not drawn) [KETOCONAZOLE]  ×10⁻⁶ cm/s             3.3
1           CC(=O)Oc1ccccc1C(=O)O [ASPIRIN]  ×10⁻⁶ cm/s             3.8

With those in mind, consider the next molecule.
// query Can you share its Papp? I mean this molecule: O=C(O)c1cc(/N=N/c2ccc(S(=O)(=O)Nc3ccccn3)cc2)ccc1O [SULFASALAZINE]
// result 0.3

---

- ASSAY NAME: in vitro
- CONDITION: PAMPA
- Description: Permeability of the compound incubated for 165 mins by PAMPA-BBB assay
MEASURED QUANTITY: Papp at 2.75 h (×10⁻⁶ cm/s)
Report the value in ×10⁻⁶ cm/s with no unit label.

In [3]: df
Out[3]:
                           molecular_string       units  recorded_value
0  COc1ccc(CCNS(=O)(=O)c2cc3c(cc2C)OCO3)cc1OC  ×10⁻⁶ cm/s            3.46

Moving on to the next compound.
// query Given the compound O=C(Nc1c(Cl)cncc1Cl)c1ccc(OC(F)F)c(OCC2CC2)c1 , what is its reported Papp at 2.75 h?
// result 8.05

---

- ASSAY NAME: Chemical stability of the compound in KCl/HCl buffer at pH 2.0 measured upto 120 mins by HPLC-DAD analysis
- CONDITION: pH 2, 2 h
MEASURED QUANTITY: Stabilty

In [3]: df
Out[3]:
                           molecular_string  recorded_value
0       COc1ccc(CCNS(=O)(=O)c2ccccc2C)cc1OC          Stable
1  COc1ccc(CCNS(=O)(=O)c2ccc(OC)c(OC)c2)cc1OC          Stable
2  COc1ccc(CCN(C)S(=O)(=O)c2ccc([N+](=O)[O-])cc2)cc1OC          Stable

---

- ASSAY NAME: in vitro
- CONDITION: PAMPA
// reported Papp at 8 h for each item listed

Use these answered entries as a reference point.
                                   compound   recorded_value
0  O=C(O)c1cc(/N=N/c2ccc(S(=O)(=O)Nc3ccccn3)cc2)ccc1O  0.45 ×10⁻⁶ cm/s
1  CC(=O)N1CCN(c2ccc(OCC3COC(Cn4ccnc4)(c4ccc(Cl)cc4Cl)O3)cc2)CC1 (centres undefined)  4.93 ×10⁻⁶ cm/s
2                     CC(=O)Oc1ccccc1C(=O)O  1.69 ×10⁻⁶ cm/s
3  O=C(Nc1c(Cl)cncc1Cl)c1ccc(OC(F)F)c(OCC2CC2)c1  5.28 ×10⁻⁶ cm/s
4  COc1ccc(/C=N/N(C)S(=O)(=O)c2cc3c(cc2C)OCO3)cc1OC  13.1 ×10⁻⁶ cm/s

// query Returns the measured Papp at 8 h for the input compound. Input: COc1ccc([C@]2(C#N)CC[C@@H](C(=O)O)CC2)cc1OC1CCCC1
// result 7.29 ×10⁻⁶ cm/s

// query For C[C@]12C=CC(=O)C=C1CC[C@@H]1[C@@H]2C(=O)C[C@@]2(C)[C@H]1CC[C@]2(O)C(=O)CO then?
// result 3.09 ×10⁻⁶ cm/s

// query Also need O=c1ccc2ccccc2o1 , thanks.
// result 22.6 ×10⁻⁶ cm/s

// query // next record Nc1nc2c(ncn2COCCO)c(=O)[nH]1
// result 0.08 ×10⁻⁶ cm/s
